- protocol_summary: Volume of distribution at steady state in mouse at 25 mg/kg, iv
- Type: ADME, organism-based
- Set-up: dose 25 mg/kg, route intravenous
- experimental_setup: in vivo, read-out: Vdss
attribute_measured: Vd (L/kg)

Cc1c(NC(=O)OC[C@@H]2COCCN2)cn2ncnc(Nc3ccc4c(cnn4Cc4cccc(F)c4)c3)c12 :: 4.7

* * *

- protocol_summary: Tmax in rat at 10 mg/kg, po
- Type: ADME, organism-based
- Design: dose 10 mg/kg, route oral
- experimental_setup: in vivo
attribute_measured: Tmax (min)

Cc1c(NC(=O)OC[C@@H]2COCCN2)cn2ncnc(Nc3ccc4c(cnn4Cc4cccc(F)c4)c3)c12 :: 42

* * *

- protocol_summary: Metabolic stability in mouse liver microsomes assessed per mg of protein at 10 uM after 10 mins
- Assay type: ADME, Microsome
attribute_measured: Stability (nmol/min)

Cc1c(NC(=O)OC[C@@H]2COCCN2)cn2ncnc(Nc3ccc4c(cnn4Cc4cccc(F)c4)c3)c12 :: 0.02
CCC1=C2C(Nc3ccc4c(cnn4Cc4ccccc4)c3)=NC=NC2N=C1NC(=O)O[C@H]1CC[C@@](C)(N)CC1 (stereo partly specified) :: 0.02
CCC1=C2C(Nc3ccc4c(cnn4Cc4cccc(F)c4)c3)=NC=NC2N=C1NC(=O)OC[C@@H]1COCCN1 (stereo partly specified) :: 0.01
CCc1c(NC(=O)OC[C@@H]2COCCN2)cn2ncnc(Nc3ccc4c(cnn4Cc4ccccc4)c3)c12 :: 0.14
CCC1=C2C(Nc3ccc4c(cnn4Cc4ccccc4)c3)=NC=NC2N=C1NC(=O)OCCN1CCNCC1 (stereo unspecified) :: 0.1
CCC1=C2C(Nc3ccc4c(cnn4Cc4ccccc4)c3)=NC=NC2N=C1NC(=O)OCCN1CCCCC1 (stereo unspecified) :: 0.27

* * *

- protocol_summary: Protein binding in dog plasma at 10 uM by equilibrium dialysis
- Format: ADME, cell-free, Canis lupus familiaris
- experimental_setup: read-out: PPB (converted)
attribute_measured: fraction unbound at 10 µM

Cc1c(NC(=O)OC[C@@H]2COCCN2)cn2ncnc(Nc3ccc4c(cnn4Cc4cccc(F)c4)c3)c12 [AC-480] :: 0.029

* * *

- protocol_summary: Protein binding in cynomolgus monkey plasma at 10 uM by equilibrium dialysis
- Format: ADME, cell-free, Macaca fascicularis
- experimental_setup: read-out: PPB (converted)
attribute_measured: fraction unbound at 10 µM

Cc1c(NC(=O)OC[C@@H]2COCCN2)cn2ncnc(Nc3ccc4c(cnn4Cc4cccc(F)c4)c3)c12 :: 0.031

* * *

- protocol_summary: Volume of distribution at steady state in rat at 2.5 mg/kg, iv
- Format: ADME, organism-based
- Parameters: dose 2.5 mg/kg, route intravenous
- experimental_setup: in vivo, read-out: Vdss
attribute_measured: Vd (L/kg)

Cc1c(NC(=O)OC[C@@H]2COCCN2)cn2ncnc(Nc3ccc4c(cnn4Cc4cccc(F)c4)c3)c12 :: 5.7

* * *

- assay_system: Voltage-gated inwardly rectifying potassium channel KCNH2 (Homo sapiens, UniProt Q12809)
- Sequence (Q12809 whole entry): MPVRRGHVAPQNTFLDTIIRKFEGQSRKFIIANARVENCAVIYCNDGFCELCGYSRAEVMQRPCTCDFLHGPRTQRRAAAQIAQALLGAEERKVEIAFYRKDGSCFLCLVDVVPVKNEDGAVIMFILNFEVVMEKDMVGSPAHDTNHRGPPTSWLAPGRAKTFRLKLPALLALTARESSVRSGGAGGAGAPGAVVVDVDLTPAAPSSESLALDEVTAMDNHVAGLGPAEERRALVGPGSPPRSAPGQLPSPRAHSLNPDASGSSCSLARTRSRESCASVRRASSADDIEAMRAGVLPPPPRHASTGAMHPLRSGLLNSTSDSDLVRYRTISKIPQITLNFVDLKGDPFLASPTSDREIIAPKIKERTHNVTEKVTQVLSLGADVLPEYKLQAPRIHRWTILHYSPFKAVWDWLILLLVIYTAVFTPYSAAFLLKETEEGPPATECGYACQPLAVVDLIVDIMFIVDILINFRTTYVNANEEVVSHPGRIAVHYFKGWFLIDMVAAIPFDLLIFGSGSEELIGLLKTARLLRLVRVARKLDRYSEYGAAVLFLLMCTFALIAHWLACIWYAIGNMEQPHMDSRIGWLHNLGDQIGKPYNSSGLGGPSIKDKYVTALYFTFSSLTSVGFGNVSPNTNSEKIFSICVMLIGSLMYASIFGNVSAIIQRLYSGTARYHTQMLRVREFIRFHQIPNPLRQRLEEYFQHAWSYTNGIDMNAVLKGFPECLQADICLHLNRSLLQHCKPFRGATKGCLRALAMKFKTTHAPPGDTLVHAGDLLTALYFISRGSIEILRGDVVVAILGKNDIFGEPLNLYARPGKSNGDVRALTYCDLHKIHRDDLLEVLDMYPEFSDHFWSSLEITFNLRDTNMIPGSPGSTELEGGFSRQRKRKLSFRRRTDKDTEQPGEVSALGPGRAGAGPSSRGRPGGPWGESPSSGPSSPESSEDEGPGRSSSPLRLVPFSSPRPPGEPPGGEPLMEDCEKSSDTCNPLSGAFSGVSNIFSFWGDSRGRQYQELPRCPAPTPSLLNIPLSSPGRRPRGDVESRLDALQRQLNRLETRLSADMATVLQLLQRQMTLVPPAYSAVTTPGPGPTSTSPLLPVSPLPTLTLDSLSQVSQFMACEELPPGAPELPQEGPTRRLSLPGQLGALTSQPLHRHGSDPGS
- protocol_summary: Inhibition of human ERG expressed in HEK cells
attribute_measured: IC50 (µM)

Cc1c(NC(=O)OC[C@@H]2COCCN2)cn2ncnc(Nc3ccc4c(cnn4Cc4cccc(F)c4)c3)c12 :: 4

* * *

- protocol_summary: Clearance in mouse at 25 mg/kg, iv
- Assay type: ADME, organism-based
- Design: dose 25 mg/kg, route intravenous
- experimental_setup: in vivo
attribute_measured: clearance (mL/min/kg)

Cc1c(NC(=O)OC[C@@H]2COCCN2)cn2ncnc(Nc3ccc4c(cnn4Cc4cccc(F)c4)c3)c12 :: 21.3

* * *

- protocol_summary: AUC (0 to 24 hrs) in dog at 25 mg/kg, po
- Format: ADME, organism-based, Canis lupus familiaris
- Parameters: time < 24 hr, dose 25 mg/kg, route oral
- experimental_setup: plasma
attribute_measured: AUC(0-t) at 24 h

Cc1c(NC(=O)OC[C@@H]2COCCN2)cn2ncnc(Nc3ccc4c(cnn4Cc4cccc(F)c4)c3)c12 :: 14 µM·h

* * *

- protocol_summary: Oral bioavailability in rat at 10 mg/kg
- Type: ADME, organism-based
- experimental_setup: in vivo
attribute_measured: bioavailability

Cc1c(NC(=O)OC[C@@H]2COCCN2)cn2ncnc(Nc3ccc4c(cnn4Cc4cccc(F)c4)c3)c12 [AC-480] :: 40%

* * *

Listed below: pIC50 values for each entry.
- Test system: NCI-N87
- protocol_summary: Antiproliferative activity against human NCI-N87 cells after 72 hrs by MTT assay
- Type: functional, cell-based
- experimental_setup: NCI-N87, 72 h
pIC50: −log10 of the molar value.
attribute_measured: pIC50

CCc1c(NC(=O)OC[C@@H]2COCCN2)cn2ncnc(Nc3ccc4c(cnn4Cc4ccccc4)c3)c12 :: 6.46
CCC1=C2C(Nc3ccc4c(cnn4Cc4ccccc4)c3)=NC=NC2N=C1NC(=O)OCC1CCCNC1 (centres undefined) :: 6.49
CCC1=C2C(Nc3ccc4c(cnn4Cc4ccccc4)c3)=NC=NC2N=C1NC(=O)OCCN1CCCCC1 (centres undefined) :: 6.41
CCC1=C2C(Nc3ccc4c(cnn4Cc4ccccc4)c3)=NC=NC2N=C1NC(=O)OCCn1ccnc1 (centres undefined) :: 6.01

* * *

- assay_system: Cytochrome P450 2C9 (Homo sapiens, UniProt P11712)
- Sequence (P11712 whole entry): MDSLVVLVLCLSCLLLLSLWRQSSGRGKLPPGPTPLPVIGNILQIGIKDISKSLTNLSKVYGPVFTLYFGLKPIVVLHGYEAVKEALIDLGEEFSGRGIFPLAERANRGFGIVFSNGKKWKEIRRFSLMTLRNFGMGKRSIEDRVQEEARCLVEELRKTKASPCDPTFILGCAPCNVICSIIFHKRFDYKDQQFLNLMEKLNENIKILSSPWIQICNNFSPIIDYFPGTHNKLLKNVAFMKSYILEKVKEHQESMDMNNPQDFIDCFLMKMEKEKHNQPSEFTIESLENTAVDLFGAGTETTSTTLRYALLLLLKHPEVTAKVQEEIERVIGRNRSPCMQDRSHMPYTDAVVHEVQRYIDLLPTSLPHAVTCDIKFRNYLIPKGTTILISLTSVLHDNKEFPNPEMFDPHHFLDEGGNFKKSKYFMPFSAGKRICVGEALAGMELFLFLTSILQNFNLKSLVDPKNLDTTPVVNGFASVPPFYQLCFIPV
attribute_measured: IC50 (µM)

Cc1c(NC(=O)OC[C@@H]2COCCN2)cn2ncnc(Nc3ccc4c(cnn4Cc4cccc(F)c4)c3)c12 :: 12

* * *

- protocol_summary: Clearance in rat at 2.5 mg/kg, iv
- Format: ADME, organism-based
- Design: dose 2.5 mg/kg, route intravenous
- experimental_setup: in vivo
attribute_measured: clearance (mL/min/kg)

Cc1c(NC(=O)OC[C@@H]2COCCN2)cn2ncnc(Nc3ccc4c(cnn4Cc4cccc(F)c4)c3)c12 :: 41.6

* * *

- assay_system: UniProt:P05177
- Sequence (P05177 whole entry): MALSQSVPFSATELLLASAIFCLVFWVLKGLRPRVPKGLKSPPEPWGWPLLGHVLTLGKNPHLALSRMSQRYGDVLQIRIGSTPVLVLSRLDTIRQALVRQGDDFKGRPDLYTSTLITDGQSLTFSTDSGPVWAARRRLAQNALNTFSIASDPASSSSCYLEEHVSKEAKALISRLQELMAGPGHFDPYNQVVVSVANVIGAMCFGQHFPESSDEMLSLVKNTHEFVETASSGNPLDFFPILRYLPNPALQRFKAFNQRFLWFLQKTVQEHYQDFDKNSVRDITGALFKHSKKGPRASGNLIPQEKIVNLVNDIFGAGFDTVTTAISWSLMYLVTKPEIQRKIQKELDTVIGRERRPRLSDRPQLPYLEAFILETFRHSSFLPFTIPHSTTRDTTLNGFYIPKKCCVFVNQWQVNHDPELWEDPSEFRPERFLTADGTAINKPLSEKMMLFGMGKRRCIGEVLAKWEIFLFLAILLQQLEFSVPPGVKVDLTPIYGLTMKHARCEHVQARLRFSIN
attribute_measured: IC50

Cc1c(NC(=O)OC[C@@H]2COCCN2)cn2ncnc(Nc3ccc4c(cnn4Cc4cccc(F)c4)c3)c12 :: > 40 µM

* * *

- protocol_summary: Mean residence time in dog at 1.5 mg/kg, iv
- Assay type: ADME, organism-based, Canis lupus familiaris
- Set-up: dose 1.5 mg/kg, route intravenous
- experimental_setup: in vivo
attribute_measured: MRT (h)

Cc1c(NC(=O)OC[C@@H]2COCCN2)cn2ncnc(Nc3ccc4c(cnn4Cc4cccc(F)c4)c3)c12 :: 6.9

* * *

- Tested on: Mus musculus
- protocol_summary: Plasma concentration in BALB/c mouse at 50 mg/kg, po
- Format: ADME, organism-based
- Set-up: dose 50 mg/kg, route oral
- experimental_setup: in vivo
In this section, each of the molecules is paired with its reported log10(concentration).
attribute_measured: log10(concentration) (log10 of the value in nM)

CCC1=C2C(Nc3ccc4c(cnn4Cc4ccccc4)c3)=NC=NC2N=C1NC(=O)OCC1CCCCN1 (configuration not stated) :: 3.36
CCc1c(NC(=O)OC[C@@H]2COCCN2)cn2ncnc(Nc3ccc4c(cnn4Cc4ccccc4)c3)c12 :: 3.41
CCC1=C2C(Nc3ccc4c(cnn4Cc4ccccc4)c3)=NC=NC2N=C1NC(=O)OCCN1CCOCC1 (configuration not stated) :: 3.69
CCC1=C2C(Nc3ccc4c(cnn4Cc4ccccc4)c3)=NC=NC2N=C1NC(=O)O[C@H]1CC[C@@](C)(N)CC1 (some centres not stated) :: 2.66
CCC1=C2C(Nc3ccc4c(cnn4Cc4ccccc4)c3)=NC=NC2N=C1NC(=O)OCCC1CCNCC1 (configuration not stated) :: 2.04
CCC1=C2C(Nc3ccc4c(cnn4Cc4ccccc4)c3)=NC=NC2N=C1NC(=O)OCCN1CCNCC1 (configuration not stated) :: 2.48
Cc1c(NC(=O)OC[C@@H]2COCCN2)cn2ncnc(Nc3ccc4c(cnn4Cc4cccc(F)c4)c3)c12 :: 3.61

* * *

- assay_system: Receptor tyrosine-protein kinase erbB-2 (Homo sapiens, UniProt P04626)
- Sequence (P04626 whole entry): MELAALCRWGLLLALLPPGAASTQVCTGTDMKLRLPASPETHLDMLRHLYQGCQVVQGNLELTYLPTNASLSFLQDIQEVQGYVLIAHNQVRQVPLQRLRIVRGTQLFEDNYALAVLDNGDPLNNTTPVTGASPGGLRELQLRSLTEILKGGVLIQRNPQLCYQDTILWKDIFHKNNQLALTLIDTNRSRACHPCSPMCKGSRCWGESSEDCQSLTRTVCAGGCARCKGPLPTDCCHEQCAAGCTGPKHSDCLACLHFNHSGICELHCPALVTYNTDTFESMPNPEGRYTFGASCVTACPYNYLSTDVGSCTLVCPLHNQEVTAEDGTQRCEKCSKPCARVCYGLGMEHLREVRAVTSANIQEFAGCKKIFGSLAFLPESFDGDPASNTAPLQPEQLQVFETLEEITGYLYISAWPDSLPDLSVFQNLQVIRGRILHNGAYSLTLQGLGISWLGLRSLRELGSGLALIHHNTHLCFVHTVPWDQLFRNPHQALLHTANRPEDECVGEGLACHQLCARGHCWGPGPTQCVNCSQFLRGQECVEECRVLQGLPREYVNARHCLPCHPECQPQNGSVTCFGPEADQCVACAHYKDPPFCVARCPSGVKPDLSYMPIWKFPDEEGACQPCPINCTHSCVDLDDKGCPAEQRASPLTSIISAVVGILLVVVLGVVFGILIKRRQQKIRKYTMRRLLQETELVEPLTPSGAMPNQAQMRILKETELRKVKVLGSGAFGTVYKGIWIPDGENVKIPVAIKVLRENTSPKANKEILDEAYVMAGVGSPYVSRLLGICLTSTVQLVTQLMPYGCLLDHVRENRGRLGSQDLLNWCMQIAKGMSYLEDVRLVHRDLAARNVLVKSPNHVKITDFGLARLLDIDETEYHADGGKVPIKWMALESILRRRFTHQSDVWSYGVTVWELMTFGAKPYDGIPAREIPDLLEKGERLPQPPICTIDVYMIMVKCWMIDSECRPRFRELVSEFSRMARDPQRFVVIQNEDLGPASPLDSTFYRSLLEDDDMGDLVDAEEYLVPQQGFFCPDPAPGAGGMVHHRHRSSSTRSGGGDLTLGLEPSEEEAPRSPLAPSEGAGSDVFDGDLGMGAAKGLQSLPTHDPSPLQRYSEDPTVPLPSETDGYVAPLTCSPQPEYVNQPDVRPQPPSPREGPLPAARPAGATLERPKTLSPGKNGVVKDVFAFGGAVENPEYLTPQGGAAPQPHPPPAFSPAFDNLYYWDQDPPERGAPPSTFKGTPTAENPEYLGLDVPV
- protocol_summary: Inhibition of human recombinant HER2 expressed in Sf9 cells by liquid scintillation counting
Item-by-item account of IC50
attribute_measured: IC50 (nM)

CCC1=C2C(Nc3ccc4c(cnn4Cc4cccc(F)c4)c3)=NC=NC2N=C1NC(=O)OC[C@@H]1COCCN1 (some centres not stated) :: 22
CCC1=C2C(Nc3ccc4c(cnn4Cc4ccccc4)c3)=NC=NC2N=C1NC(=O)OCCN1CCNCC1 (configuration not stated) :: 18
CCC1=C2C(Nc3ccc4c(cnn4Cc4ccccc4)c3)=NC=NC2N=C1NC(=O)OCC1CCCNC1 (configuration not stated) :: 29
CCC1=C2C(Nc3ccc4c(cnn4Cc4ccccc4)c3)=NC=NC2N=C1NC(=O)OCC1CCNCC1 (configuration not stated) :: 23
CCC1=C2C(Nc3ccc4c(cnn4Cc4ccccc4)c3)=NC=NC2N=C1NC(=O)OCCC1CCNCC1 (configuration not stated) :: 37
CCC1=C2C(Nc3ccc4c(cnn4Cc4ccccc4)c3)=NC=NC2N=C1NC(=O)OCCn1ccnc1 (configuration not stated) :: 44
CCC1=C2C(Nc3ccc4c(cnn4Cc4ccccc4)c3)=NC=NC2N=C1NC(=O)OCCN1CCOCC1 (configuration not stated) :: 77
CCc1c(NC(=O)OC[C@@H]2COCCN2)cn2ncnc(Nc3ccc4c(cnn4Cc4ccccc4)c3)c12 :: 21
Cc1c(NC(=O)OC[C@@H]2COCCN2)cn2ncnc(Nc3ccc4c(cnn4Cc4cccc(F)c4)c3)c12 :: 22
CCC1=C2C(Nc3ccc4c(cnn4Cc4ccccc4)c3)=NC=NC2N=C1NC(=O)O[C@H]1CC[C@@](C)(N)CC1 (some centres not stated) :: 20
CCC1=C2C(Nc3ccc4c(cnn4Cc4ccccc4)c3)=NC=NC2N=C1NC(=O)OCC1CCCCN1 (configuration not stated) :: 30
CCC1=C2C(Nc3ccc4c(cnn4Cc4ccccc4)c3)=NC=NC2N=C1NC(=O)OCCN1CCCCC1 (configuration not stated) :: 28
